# Tested on: U251 (glioma) cells
# protocol: Anti-cancer screen (MTT), U251
# Format: cell-based
# assayConditions: Homo sapiens, U-251; U251, 48 hours, MTT; read-out: Cell growth inhibition U251 (Glioma) TGI
Criterion: IC (TGI) meeting or surpassing 50 µM. Met: yes. Not met: no.

[[record]]
compound = "O=C(CCCCCNC(=O)/C(=C/C1CC1)c1ccc(F)cc1)NO [Compound 93]"
classlabel = "yes"

[[record]]
compound = "CSc1ccc(/C=C(/C(=O)NCc2ccc(C(=O)Nc3ccccc3N)cc2)c2ccc(F)cc2)cc1 [Compound 6]"
classlabel = "no"

[[record]]
compound = "COc1cc(/C=C(/C(=O)NCc2ccc(C(=O)Nc3ccccc3N)cc2)c2ccc(F)cc2)cc(OC)c1OC [Compound 8]"
classlabel = "yes"

[[record]]
compound = "COc1ccc(/C(=C\\c2ccc(SC)cc2)C(=O)NCCCCCC(=O)NO)cc1 [Compound 92]"
classlabel = "no"

[[record]]
compound = "COc1ccc(/C=C(/C(=O)NCc2ccc(C(=O)Nc3ccccc3N)cc2)c2ccc(F)cc2)cc1 [Compound 11]"
classlabel = "yes"

[[record]]
compound = "Nc1ccccc1NC(=O)c1ccc(CNC(=O)/C(=C/c2ccc(F)cc2)c2ccccc2)cc1 [Compound 10]"
classlabel = "yes"

[[record]]
compound = "CSc1ccc(/C=C(/C(=O)NCc2ccc(C(=O)NO)cc2)c2ccc(C)cc2)cc1 [Compound 58]"
classlabel = "no"


###

# Tested on: U251 (glioma) cells
# protocol: Anti-cancer screen (MTT), U251
# Type: cell-based
# assayConditions: Homo sapiens, U-251; U251, 48 hours, MTT; read-out: Cell growth inhibition U251 (Glioma) LC50
property: LC50 (concentration giving 50% net cell kill relative to the time-zero cell count) (µM)

[[record]]
smilesstr = "CSc1ccc(/C=C(/C(=O)NCc2ccc(C(=O)NO)cc2)c2ccccc2Cl)cc1"
tgt = "U251 (glioma) cells"
valuerelationsign = ">"
number = 100

[[record]]
smilesstr = "CSc1ccc(/C=C(/C(=O)NCc2ccc(C(=O)Nc3ccccc3N)cc2)c2ccsc2)cc1"
tgt = "U251 (glioma) cells"
valuerelationsign = ">"
number = 100

[[record]]
smilesstr = "CSc1ccc(/C=C(/C(=O)NCCCCCC(=O)NO)c2ccccc2F)cc1"
tgt = "U251 (glioma) cells"
valuerelationsign = "="
number = 70

[[record]]
smilesstr = "Nc1ccccc1NC(=O)c1ccc(CNC(=O)/C(=C/c2c(F)cc(F)cc2F)c2ccc(F)cc2)cc1"
tgt = "U251 (glioma) cells"
valuerelationsign = "="
number = 48

[[record]]
smilesstr = "O=C(CCCCCNC(=O)NC(=O)/C(=C/c1ccccc1)c1ccccc1)NO"
tgt = "U251 (glioma) cells"
valuerelationsign = "="
number = 76

[[record]]
smilesstr = "COc1ccc(/C(=C\\c2ccc(SC)cc2)C(=O)NCCCCCC(=O)NO)cc1"
tgt = "U251 (glioma) cells"
valuerelationsign = "="
number = 76

[[record]]
smilesstr = "COc1ccc(/C(=C\\c2ccc(F)cc2)C(=O)NCc2ccc(C(=O)NO)cc2)cc1"
tgt = "U251 (glioma) cells"
valuerelationsign = "="
number = 81

[[record]]
smilesstr = "O=C(NCc1ccc(C(=O)NO)cc1)/C(=C/c1ccc(F)cc1)c1ccccc1"
tgt = "U251 (glioma) cells"
valuerelationsign = "="
number = 72

[[record]]
smilesstr = "COc1ccc(/C=C(/C(=O)NCc2ccc(C(=O)NO)cc2)c2ccc(C)cc2)cc1OC"
tgt = "U251 (glioma) cells"
valuerelationsign = ">"
number = 100

[[record]]
smilesstr = "CSc1ccc(/C=C(/C(=O)NCc2ccc(C(=O)NO)cc2)c2ccc(F)cc2)cc1"
tgt = "U251 (glioma) cells"
valuerelationsign = "="
number = 75

[[record]]
smilesstr = "COc1ccc(/C=C(/C(=O)NCc2ccc(/C=C/C(=O)NO)cc2)c2ccccc2F)cc1OC"
tgt = "U251 (glioma) cells"
valuerelationsign = ">"
number = 100

[[record]]
smilesstr = "CSc1ccc(/C=C(/C(=O)NCCCCCCC(=O)NO)c2ccc(F)cc2)cc1"
tgt = "U251 (glioma) cells"
valuerelationsign = "="
number = 95

[[record]]
smilesstr = "COc1ccc(/C=C(/C(=O)NCc2ccc(C(=O)Nc3ccccc3N)cc2)c2ccccc2)cc1"
tgt = "U251 (glioma) cells"
valuerelationsign = ">"
number = 100

[[record]]
smilesstr = "CS(=O)(=O)c1ccc(/C=C(/C(=O)NCCCCCC(=O)NO)c2ccc(F)cc2)cc1"
tgt = "U251 (glioma) cells"
valuerelationsign = ">"
number = 100

[[record]]
smilesstr = "COc1ccc(/C=C(/C(=O)NCc2ccc(C(=O)NO)cc2)c2ccc(F)cc2)cc1"
tgt = "U251 (glioma) cells"
valuerelationsign = "="
number = 30

[[record]]
smilesstr = "Nc1ccccc1NC(=O)c1ccc(CNC(=O)/C(=C/c2ccccc2)c2ccccc2)cc1"
tgt = "U251 (glioma) cells"
valuerelationsign = "="
number = 82

[[record]]
smilesstr = "CS(=O)(=O)c1ccc(/C=C(/C(=O)NCCCCCC(=O)Nc2ccccc2N)c2ccc(F)cc2)cc1"
tgt = "U251 (glioma) cells"
valuerelationsign = "="
number = 87

[[record]]
smilesstr = "CSc1ccc(/C=C(/C(=O)NCCCCCC(=O)NO)c2ccsc2)cc1"
tgt = "U251 (glioma) cells"
valuerelationsign = "="
number = 82

[[record]]
smilesstr = "CSc1ccc(/C=C(/C(=O)NCCCCCC(=O)NO)c2ccccc2Cl)cc1"
tgt = "U251 (glioma) cells"
valuerelationsign = "="
number = 64

[[record]]
smilesstr = "COc1ccc(/C=C(/C(=O)NCc2ccc(C(=O)Nc3ccccc3N)cc2)c2cccs2)cc1OC"
tgt = "U251 (glioma) cells"
valuerelationsign = "="
number = 51

[[record]]
smilesstr = "COc1ccc(/C=C(/C(=O)NCc2ccc(/C=C/C(=O)NO)cc2)c2ccc(F)cc2)cc1OC"
tgt = "U251 (glioma) cells"
valuerelationsign = ">"
number = 100

[[record]]
smilesstr = "COc1ccc(/C=C(/C(=O)NCc2ccc(C(=O)Nc3ccccc3N)cc2)c2ccccc2)cc1OC"
tgt = "U251 (glioma) cells"
valuerelationsign = ">"
number = 100

[[record]]
smilesstr = "COc1ccc(/C(=C\\c2ccc(SC)cc2)C(=O)NCc2ccc(C(=O)NO)cc2)cc1"
tgt = "U251 (glioma) cells"
valuerelationsign = "="
number = 60

[[record]]
smilesstr = "Nc1ccccc1NC(=O)c1ccc(CNC(=O)/C(=C/c2ccc(F)cc2)c2ccccc2)cc1"
tgt = "U251 (glioma) cells"
valuerelationsign = "="
number = 92

[[record]]
smilesstr = "O=C(CCCCCNC(=O)/C(=C/c1ccccc1)c1ccccc1)NO"
tgt = "U251 (glioma) cells"
valuerelationsign = "="
number = 78

[[record]]
smilesstr = "CSc1ccc(/C=C(/C(=O)NCc2ccc(C(=O)Nc3ccccc3N)cc2)c2ccc(C)cc2)cc1"
tgt = "U251 (glioma) cells"
valuerelationsign = "="
number = 89

[[record]]
smilesstr = "COc1ccc(/C=C(/C(=O)NCc2ccc(C(=O)Nc3ccccc3N)cc2)c2ccc(F)cc2)cc1OC"
tgt = "U251 (glioma) cells"
valuerelationsign = "="
number = 4.8

[[record]]
smilesstr = "Nc1ccccc1NC(=O)c1ccc(CNC(=O)/C(=C/c2ccc(F)cc2Cl)c2ccccc2)cc1"
tgt = "U251 (glioma) cells"
valuerelationsign = ">"
number = 100

[[record]]
smilesstr = "Nc1ccccc1NC(=O)c1ccc(CNC(=O)/C(=C/c2ccccc2F)c2ccc(Cl)cc2)cc1"
tgt = "U251 (glioma) cells"
valuerelationsign = "="
number = 85

[[record]]
smilesstr = "COc1ccc(/C=C(/C(=O)NCc2ccc(C(=O)Nc3ccccc3N)cc2)c2ccc(C)cc2)cc1OC"
tgt = "U251 (glioma) cells"
valuerelationsign = ">"
number = 100

[[record]]
smilesstr = "O=C(CCCCCNC(=O)NC(=O)/C(=C/c1ccc(F)c(F)c1)c1ccc(F)cc1)NO"
tgt = "U251 (glioma) cells"
valuerelationsign = "="
number = 84

[[record]]
smilesstr = "COC(=O)c1ccc(/C=C(/C(=O)NCc2ccc(C(=O)Nc3ccccc3N)cc2)c2cccc(Cl)c2)cc1"
tgt = "U251 (glioma) cells"
valuerelationsign = "="
number = 4.5


###

# Tested on: NCIH460 (lung) cells
# protocol: Anti-cancer screen (MTT), NCIH460
# Format: cell-based
# assayConditions: Homo sapiens, NCI-H460; NCIH460, 48 hours, MTT; read-out: Cell growth inhibition NCIH460 (Lung) LC50
# Method: Experimental drugs were screened for anti-cancer activity in three cell lines using five concentrations for each compound. The cell lines —HCT 116 (colon), NCIH460 (lung) and U251 (glioma) were maintained in DMEM containing 10% fetal bovine serum. 96-well microtiter plates are inoculated with cells in 100 μL of cell suspension (5×10^4 cells/mL) for 24 hours at 37° C., 5% CO2, 95% air and 100% relative humidity. […]
property: LC50 (µM)

[[record]]
smilesstr = "O=C(CCCCCNC(=O)/C(=C/c1ccccc1)c1ccccc1)NO"
property = "LC50"
unitslabel = "µM"
valuerelationsign = "="
number = 91

[[record]]
smilesstr = "Nc1ccccc1NC(=O)c1ccc(CNC(=O)/C(=C/c2ccnc3ccccc23)c2ccc(F)cc2)cc1"
property = "LC50"
unitslabel = "µM"
valuerelationsign = ">"
number = 100

[[record]]
smilesstr = "CSc1ccc(/C=C(/C(=O)NCCCCCC(=O)NO)c2ccccc2F)cc1"
property = "LC50"
unitslabel = "µM"
valuerelationsign = "="
number = 74

[[record]]
smilesstr = "O=C(CCCCCNC(=O)NC(=O)/C(=C/c1ccc(F)c(F)c1)c1ccc(F)cc1)NO"
property = "LC50"
unitslabel = "µM"
valuerelationsign = "="
number = 96

[[record]]
smilesstr = "COc1ccc(/C(=C\\c2ccc(SC)cc2)C(=O)NCc2ccc(C(=O)NO)cc2)cc1"
property = "LC50"
unitslabel = "µM"
valuerelationsign = "="
number = 33

[[record]]
smilesstr = "COC(=O)c1ccc(/C=C(/C(=O)NCc2ccc(C(=O)Nc3ccccc3N)cc2)c2cccc(Cl)c2)cc1"
property = "LC50"
unitslabel = "µM"
valuerelationsign = "="
number = 60

[[record]]
smilesstr = "COC(=O)c1ccc(/C=C(/C(=O)NCc2ccc(C(=O)Nc3ccccc3N)cc2)c2cccs2)cc1"
property = "LC50"
unitslabel = "µM"
valuerelationsign = ">"
number = 100

[[record]]
smilesstr = "COC(=O)c1ccc(/C=C(/C(=O)NCc2ccc(C(=O)Nc3ccccc3N)cc2)c2ccc(F)c(F)c2)cc1"
property = "LC50"
unitslabel = "µM"
valuerelationsign = ">"
number = 100

[[record]]
smilesstr = "CSc1ccc(/C=C(/C(=O)NCc2ccc(/C=C/C(=O)NO)cc2)c2ccc(F)cc2)cc1"
property = "LC50"
unitslabel = "µM"
valuerelationsign = ">"
number = 100

[[record]]
smilesstr = "O=C(NCc1ccc(C(=O)NO)cc1)/C(=C/c1c(F)cc(F)cc1F)c1ccc(F)cc1"
property = "LC50"
unitslabel = "µM"
valuerelationsign = "="
number = 68

[[record]]
smilesstr = "COc1ccc(/C=C(/C(=O)NCc2ccc(/C=C/C(=O)NO)cc2)c2ccc(F)cc2)cc1OC"
property = "LC50"
unitslabel = "µM"
valuerelationsign = ">"
number = 100

[[record]]
smilesstr = "COc1cc(/C=C(/C(=O)NCCCCCC(=O)NO)c2ccc(F)cc2)ccc1F"
property = "LC50"
unitslabel = "µM"
valuerelationsign = ">"
number = 100

[[record]]
smilesstr = "COc1cc(/C=C(/C(=O)NCc2ccc(C(=O)NO)cc2)c2ccc(F)cc2)ccc1F"
property = "LC50"
unitslabel = "µM"
valuerelationsign = "="
number = 80

[[record]]
smilesstr = "CSc1ccc(/C=C(/C(=O)NCc2ccc(C(=O)Nc3ccccc3N)cc2)c2ccc(F)cc2)cc1"
property = "LC50"
unitslabel = "µM"
valuerelationsign = "="
number = 90

[[record]]
smilesstr = "Nc1ccccc1NC(=O)c1ccc(CNC(=O)/C(=C/c2c(F)cc(F)cc2F)c2ccc(F)cc2)cc1"
property = "LC50"
unitslabel = "µM"
valuerelationsign = "="
number = 93

[[record]]
smilesstr = "Nc1ccccc1NC(=O)c1ccc(CNC(=O)/C(=C/c2ccc(F)cc2)c2ccccc2)cc1"
property = "LC50"
unitslabel = "µM"
valuerelationsign = "="
number = 85

